# method: qHTS assay for small molecule disruptors of the mitochondrial membrane potential (AID 720635)
# test conditions: HepG2 mitochondrial membrane potential, Mito-MPS dye ratio; series mostly up to 83.2 µM
Records with an inconclusive call do not appear. Activity calls are given as the source filed them. The call rests on the fitted dose curve; in most records, active means well fitted inhibition curve with a large enough effect in the signal ratio in the repeat runs; inconclusive means weak or mixed curves, or effect the other way; inactive means flat fitted curve, though single readings scatter; the % refers to the signal ratio.
Write down one outcome, taken from active, inactive

Recorded results for 5 molecules are shown here.
- molecule: "COC(=O)CC#N"
  assigned class: "inactive"
- molecule: "CC(NCCC(c1ccccc1)c1ccccc1)c1ccccc1 (stereo unspecified)"
  assigned class: "active"
- molecule: "O=C1c2c(O)ccc([N+](=O)[O-])c2C(=O)c2c([N+](=O)[O-])ccc(O)c21"
  assigned class: "active"
- molecule: "O=C(O)CCn1c2c(c3ccccc31)C[C@H](NS(=O)(=O)c1ccc(F)cc1)CC2"
  assigned class: "inactive"
- molecule: "O=C1NCN(c2ccccc2)C12CCN(CCCC(c1ccc(F)cc1)c1ccc(F)cc1)CC2"
  assigned class: "active"

Turning now to a further molecule:
Answer briefly: the call reported for `CC(=O)Nc1ccc(O)cc1` in this assay. inactive

###

# method: qHTS assay to identify small molecule antagonists of the retinoid acid receptor (RAR) signaling pathway - cell viability counter screen (AID 1159551); further: nearly all actives have a fitted effect of over 35% in size
# test conditions: C3RL4 cells viability, ATP luminescence (CellTiter-Glo), 6 h; series mostly up to 92.4 µM
Results filed as inconclusive are left out. Calls of active or inactive are those of the source. The call rests on the fitted dose curve; in most records, active means well fitted cell-killing curve with a large enough effect in the repeat runs; inconclusive means weak or mixed curves, or effect the other way; inactive means flat fitted curve, though single readings scatter.
Please state which outcome applies, choosing from Y (active), N (inactive)

Worked examples follow.
- compound: "CCCC(O)C(O)CO (stereo not drawn)"
  assigned class: "N"
- compound: "OCCN1CN(CCO)CN(CCO)C1"
  assigned class: "N"
- compound: "CCCC(C)CCC(C)=O (stereo not drawn)"
  assigned class: "N"

// return assay outcome for `COc1ccc(C#N)cc1` N

###

# method: qHTS assay to identify small molecule agonists of the vitamin D receptor (VDR) signaling pathway - cell viability counter screen (AID 743224); further: nearly all actives have a fitted effect of over 50% in size
# test conditions: VDR-bla HEK293T viability, CellTiter-Glo luminescence, 16 h; series mostly up to 62.6 µM
Results filed as inconclusive are left out. Active and inactive are the calls of the source. Calls follow the shape of the dose curve; as a rule, active = well fitted cell-killing curve with a large enough effect in the repeat runs; inconclusive = weak or mixed curves, or effect the other way; inactive = no such curve, though single readings can be large or run the other way.
Mark one answer only. Choices: active, inactive

- molecule: "CCCCCCOc1cc(C)c(O)c(C)c1C"
  assigned class: "active"
- molecule: "ClC/C=C\\CCl"
  assigned class: "inactive"
- molecule: "O=C1OC(=O)c2cccc3cccc1c23"
  assigned class: "inactive"
- molecule: "Brc1ccccc1-c1ccccc1"
  assigned class: "inactive"

State the result this test recorded for `COc1cc(C(C)C)c2c(c1)S(=O)(=O)N(COc1cc(=O)n3cccc(OCCN4CCCCC4)c3n1)C2=O` . inactive

Would you mind telling me which call this test gave `Cc1cn[nH]c1` ? inactive

###

# method: A CellTox Green Cytotoxicity Assay to monitor cytotoxicity in HEK293 cells - 32 hour (AID 1224881); further: nearly all actives have a fitted effect of over 40% in size
# test conditions: CellTox Green fluorescence; series mostly up to 76.8 µM
Records with an inconclusive call do not appear. The source made the active and inactive calls. Calls follow the shape of the dose curve; as a rule, active = well fitted activation curve with a large enough effect in the repeat runs; inconclusive = weak or mixed curves; inactive = flat fitted curve, though single readings scatter.
Outcome (select one): active, inactive

Example entries begin here.
- compound: "C=C[C@](C)(O)CC[C@@H]1[C@@]2(C)CCCC(C)(C)[C@@H]2CC[C@@]1(C)O"
  assigned class: "active"
- compound: "O=C1NCCN1CCN1CCC(c2cn(-c3ccc(F)cc3)c3ccc(Cl)cc23)CC1"
  assigned class: "active"
- compound: "Cc1cc(C)c(C=O)c(C)c1"
  assigned class: "inactive"

Which result was noted for this compound in the test: `CC(C)=C1CC[C@@H](C)CC1=O` inactive

How was `CCCCNc1c(C(=O)OCC)c(C)nc2c1cnn2CC` classified in this test? inactive

Called result for `c1cc[nH]c1` inactive

Which outcome was assigned to CSc1ccc2c(c1)N(CCC1CCCCN1C)c1ccccc1S2 (centres undefined) in this test? active

Identify the outcome logged in this assay for the compound shown: `CCCCCCCOC(=O)c1ccc(O)cc1` inactive

Record request — test call for COc1cccc(CCc2ccccc2OCC(CN(C)C)OC(=O)CCC(=O)O)c1 (centres undefined) inactive

Hi, do you know how CCCC(CC)CCCCCCCN (centres undefined) came out in this test? active

Each compound tested received a call. Report the one for `O=C[C@H](O)[C@H](O)[C@H](O)CO` . inactive

Hello, I am checking results. What call was entered for `CCCCOCC` ? inactive

Hello, I am checking results. What call was entered for `CC(C)(C)c1n[nH]c(=O)n(N)c1=O` ? inactive

Identify the outcome logged in this assay for the compound shown: `CCc1cccc(C)c1` inactive
